Every entry's value here was drawn from PubChem BioAssay (NCI).

- Tested on: LXFL 529 NSCLC
- TEST DESCRIPTION: NCI tumour cell line growth inhibition, 48 h
MEASUREMENT TYPE: TGI (µM)
Answers are plain numbers, in µM.

Input: Requested read-out TGI, target or system LXFL 529 NSCLC, entry CCC1CN2CCc3cc(OC)c(OC)cc3C2CC1CC1c2cc(OC)c(OC)cc2CCN1C(=O)C(Cc1c[nH]c2ccccc12)NC(=O)OC(C)(C)C (stereo not given)
Output: 10.8

For the next question, use this compound.
Input: Please state recorded TGI (tested on LXFL 529 NSCLC) of Cc1ccc(S(=O)OC2c3ccccc3Cc3ccccc32)cc1 (stereo not given)
Output: 31.1

* * *

- System: MDA-MB-435
- TEST DESCRIPTION: NCI tumour cell line growth inhibition, 48 h
Provide the reported TGI of each item.

// worked examples, TGI included
Input: # lookup: TGI of `Cc1cc(N(C)C)ccc1N=Nc1ccc2ncccc2c1`
Output: > 100 µM

Input: Now the same for `COc1ccc(-c2nc(SCC(=O)N/N=C/c3ccc([N+](=O)[O-])cc3)[nH]c2-c2ccc(OC)cc2)cc1`
Output: 12.2 µM

Give one value of TGI per listed compound.
1. CC1(C)CCCCC1/C=C/C(CC(O)(C(F)(F)F)C(F)(F)F)=N\Nc1ccc([N+](=O)[O-])cc1[N+](=O)[O-] (configuration not stated)
2. COc1ncnn2ccc(-c3cnc4nc(C)n(Cc5nnc(C(C)F)o5)c4c3)c12 (configuration not stated)
3. Cc1cc(C)c(S(=O)(=O)N(CCCCCCN)OCCCON(CCCCCCN)S(=O)(=O)c2c(C)cc(C)cc2C)c(C)c1

Output:
1. 7.9 µM
2. > 100 µM
3. 3.99 µM

Give me TGI for each of these compounds, listed below.
1. Cc1ccc(C)n1-n1c(Cc2ccc(Cl)cc2)n[nH]c1=O
2. CCN1C2=C(SC(=S)C1=C1SC(C(=O)c3ccccc3)=C(C(=O)c3ccccc3)S1)SC(=Nc1ccccc1)C2=O
3. CC(=O)OCC(OC(C)=O)C(OC(C)=O)C(/C=N\Nc1nc2ccccc2c(=O)[nH]1)OC(C)=O (configuration not stated)
4. C/C(CC(O)(C(F)(F)Cl)C(F)(F)Cl)=N\Nc1ccccc1

Output:
1. > 100 µM
2. > 100 µM
3. > 100 µM
4. > 100 µM

* * *

Would you mind telling me the reported TGI of each entry?
- Test system: MALME-3M melanoma
- TEST DESCRIPTION: NCI tumour cell line growth inhibition, 48 h

I need TGI for every entry listed below, if you could help.
1. CC[C@H](C)[C@H](NC(=O)[C@H](Cc1ccc(O)cc1)NCC(F)(F)F)C(=O)OC(C)(C)C
2. CCN(CC)CCC1CCCCN1CC(=O)N1c2ccccc2NC(=O)CC1C (stereo unspecified)
3. COc1cc(Br)cc2c1O[C@H]1C(=O)CC3CC21CCN3C (stereo partly specified)

Output:
22.1 µM
> 100 µM
> 100 µM

Working through the 2 compounds below one at a time, give TGI for each.
1. Cc1nn(C(=O)c2ccc(Cl)cc2)c2c1C(c1ccccc1)SC(N)=N2 (stereo unspecified)
2. CSc1nc(SC)c2cnn(-c3ccnc4cc(Cl)ccc34)c2n1

Output:
1: > 10 µM; 2: > 100 µM

Hi there! I need TGI for each item below, if you can.
1. CCNc1nc2c(=O)n(C)c(=O)n(C)c2s1
2. CCN1CCC(O)(/C=C/c2cccc(C)c2)C(C(=O)/C=C/c2cccc(C)c2)C1 (stereo unspecified)
3. O=C1CCN(CCC(F)(F)C(F)(F)C(F)(F)C(F)(F)F)C(=S)N1

Output:
> 100 µM
3.53 µM
> 100 µM

* * *

- Tested on: UACC-257 melanoma
- TEST DESCRIPTION: NCI tumour cell line growth inhibition, 48 h
MEASUREMENT TYPE: TGI

Input: Which TGI value is on record for `Cc1cn2c(/C=N/NC3=NCCN3)c(-c3ccc(Cl)c([N+](=O)[O-])c3)nc2s1` ?
Output: 7.24 µM

Input: Moving on to the next compound: O=C1C2=C(c3ccccc31)C(c1ccccc1Cl)NC(=S)N2 (stereo unspecified)
Output: > 100 µM

Input: Can you handle `O=C(NC(=S)Nc1ccc(-c2nc3ccccc3[nH]2)cc1)c1ccc2ccccc2c1` next?
Output: > 100 µM

Input: Can you check `Fc1ccc(-c2nn3c(COc4ccccc4Cl)nnc3s2)cc1Oc1ccccc1` next?
Output: > 100 µM

Please give TGI for each item listed below.
1. CCCCN(CCCC)C(=O)C(=O)C(C(=O)C(=O)OC)c1nc2ccccc2o1 (stereo unspecified)
2. CN(CCNc1ccc(C(=N)N)cc1)c1ccc(C(=N)N)cc1
3. CC1(C)OP(=O)(c2ccccc2)C=C1Br (stereo unspecified)
4. CC(C)c1ccc2c(c1)CCC1C(C)(CN)CCCC21C (stereo unspecified)
5. CC(=O)OC12c3ccccc3C(c3ccccc31)C1C(=O)N(Nc3ccccc3)C(=O)C12 (stereo unspecified)

Output:
["> 100 µM", "> 100 µM", "> 100 µM", "3.03 µM", "> 100 µM"]

* * *

Task for the reader: assign each of the following molecules its reported TGI.
- Tested on: BT-549 breast
- TEST DESCRIPTION: NCI tumour cell line growth inhibition, 48 h
One number for each entry, in µM.

Previously resolved entries follow.
Input: Find the recorded TGI belonging to C=CC(Br)(CBr)CCC1OC1(C)C (stereo not given) and report it.
Output: 30.2

Input: Same thing, different molecule: `CCCCN(CCCC)C1(c2cc3ccccc3s2)CCCCC1`
Output: 35.1

Input: Param item: `Cc1ccc([I+]c2ccc(C)cc2)cc1`
Output: 75.7

Input: Okay, and Nc1n[nH]c2ccc([C@H]3[C@@H]4C5CCC(C5)[C@@H]4c4c(ccc5[nH]ncc45)N3S(=O)(=O)C3CC3)cc12 (stereo not given in full) ?
Output: 5.73

Input: Similarly, `O=C(CSc1nc2ccc([N+](=O)[O-])cc2[nH]1)Nc1ccc([N+](=O)[O-])cc1` ?
Output: 14.3

Input: Another molecule to look at: `ClCCN(CCCl)c1ccc(OCc2ccccc2)cc1`
Output: 22.6

Input: Param item: CC12OC(C(=O)C13CC3)C1C(=O)c3cccc(O)c3C(=O)C12 (stereo not given)
Output: 58.1

Input: What do we get for `Cc1ccc2[nH]c3c(C)c4cc[n+](C)cc4c(C)c3c2c1` ?
Output: 3.05

Would you mind listing TGI for each of the following molecules?
1. COc1cc(/C=C2\N=C(c3ccccc3)N(c3ccc4c(c3)Sc3cc(N5C(=O)/C(=C/c6cc(OC)c(OC)c(OC)c6)N=C5c5ccccc5)ccc3N4)C2=O)cc(OC)c1OC
2. O=C(NCCCNc1cc(-c2cn(-c3ccccc3)nc2-c2cccc(O)c2)ccn1)c1ccc(F)cc1
3. O=C(NC(=S)Nc1ccc(-c2nc3ccccc3[nH]2)cc1)c1ccc2ccccc2c1
4. Cc1cccc2c1NC(=O)[C@@H](NC(=O)[C@H](CCC(F)(F)F)[C@H](CCC(F)(F)F)C(N)=O)N=C2c1cccc(F)c1
5. Cc1cc(C)c(S(=O)(=O)N(CCCCCCN)OCCCON(CCCCCCN)S(=O)(=O)c2c(C)cc(C)cc2C)c(C)c1

Output:
55.6
6.31
6.73
66.1
3.26

* * *

- System: HS 578T breast
- TEST DESCRIPTION: NCI tumour cell line growth inhibition, 48 h
Can you tell me GI50 for the items I'm about to list?

Guide cases for GI50, answers given:
Input: Report GI50 for CC12OC(C(=O)C13CC3)C1C(=O)c3cccc(O)c3C(=O)C12 (stereo not given) please.
Output: 25.8 µM

Input: # iterate: `COc1ccc(/C=C/C(=O)c2ccc(B(O)O)cc2)cc1O`
Output: 12.6 µM

Would you mind giving GI50 for every compound in the list below?
1. O=C(NC(=S)Nc1ccc(-c2nc3ccccc3[nH]2)cc1)c1ccc2ccccc2c1
2. O=C1/C(=C\c2ccc(Cl)cc2)CN(C(=O)c2ccccc2)C/C1=C\c1ccc(Cl)cc1

Output:
1: 3.09 µM; 2: 2.92 µM

Input: # get_value(readout='GI50', item= `Fc1cc(C2=Nn3c(nnc3-c3cc(F)c(Cl)cc3Cl)SC2)c(Cl)cc1Cl` )
Output: 21.9 µM

* * *

- System: OVCAR-5 ovarian
- TEST DESCRIPTION: NCI tumour cell line growth inhibition, 48 h
MEASUREMENT TYPE: TGI

Input: Report TGI for `NC(=S)N/N=C/c1cn(CCCl)c2ccccc12` please.
Output: > 100 µM

Input: Next up: `c1ccc2c(CNCCCN3CCN(CCCNCc4cccc5ccccc45)CC3)cccc2c1`
Output: 5.32 µM

Input: Also, CC(=O)OCC(OC(C)=O)C(OC(C)=O)C(/C=N\Nc1nc2ccccc2c(=O)[nH]1)OC(C)=O (stereo not given) please.
Output: > 100 µM

Input: Now consider `COc1ccc(-c2nc(Nc3ccc(F)cc3)nc(Nc3ccc4c(c3)nc(C)n4Cc3ccccc3)n2)cc1` and answer again.
Output: 68.9 µM

Input: Now try O=c1n(Cc2ccccc2)c2ccccc2n1CC1CS1 (stereo not given) .
Output: > 100 µM

Input: Would you kindly repeat that for `CC[C@H](C)[C@H](NC(=O)[C@H](Cc1ccc(O)cc1)NCC(F)(F)F)C(=O)OC(C)(C)C` ?
Output: 18 µM

Batch request: TGI per item, same order as input.
1. Nc1ccc(-c2nnc(-c3c(Cl)c(Cl)c(Cl)c(Cl)c3-c3nc4ccc(C(=O)c5ccccc5)cc4[nH]3)o2)cc1
2. COc1cc(Br)cc2c1O[C@H]1C(=O)CC3CC21CCN3C (stereo not given in full)
3. COc1cc(S(=O)(=O)Nc2ccc(-c3csc(/N=C\c4ccccc4O)n3)cc2)ccc1Cl
4. CCN(CC)CCOc1ccc(N2Cc3cc(OC)c(OC)cc3C2=O)cc1
5. Cc1cnc2cc(Cl)ccc2c1NCCN(CC(C)C)CC(C)C
6. COCN1C(=O)[C@@H]2CCCN2C(=O)c2ccc(Cl)cc21
7. COc1ccc(-c2nc(SCC(=O)N/N=C/c3ccc([N+](=O)[O-])cc3)[nH]c2-c2ccc(OC)cc2)cc1
8. Clc1ccc(Nc2ncnc3ccccc23)cc1

Output:
89 µM
> 100 µM
> 100 µM
> 100 µM
> 100 µM
> 100 µM
60.7 µM
> 100 µM

For every item in the list below, what is its measured TGI?
1. CCc1nc2c(n1CC)C(=O)c1ccccc1C2=O
2. C/C(CC(O)(C(F)(F)Cl)C(F)(F)Cl)=N\Nc1ccccc1
3. COc1cc2c3c(n(CCCNC(C)(C)CO)c(=O)c2cc1OC)-c1cc2c(cc1C3=O)OCO2
4. COc1ccc(/C=C/C(=O)c2ccc(B(O)O)cc2)cc1O

Output:
["> 100 µM", "> 100 µM", "36.8 µM", "69.5 µM"]
